Hey, just so you know, these numbers are from patent US20240409585A1.

target: PE-labeled human PD-L1-Ig binding to Jurkat cell line over-expressing human PD-1 (Jurkat-PD-1) (Homo sapiens); construct: expressed in transfected cells; host or cells: Jurkat; assay: Jurkat-PD-1 Cell Binding High-Content Screening Assay (CBA): Method 1; details: Jurkat-hPD-1 cells, PE-labeled PD-L1-Ig 20 nM final; read-out: Jurkat HPDL1 PD1 IC50 (uM) (Method 1)
Numbered stars: 1 amine (or outer) side, 2 acyl side, 3 side chain; on linkers, the order of the positions; unused ones are H or OH. Bridge positions count the residues as written; N and C are the ends. Square brackets hold non-standard residues; d marks the D form. Peptide text beside a SMILES is read from it. X36 = O=C([C@H](Cc1ccc(-c2ccsc2)cc1)N[*:1])[*:2]; Bip = N[C@@H](Cc1ccc(-c2ccccc2)cc1)C(=O)O; NMeA = CN[C@@H](C)C(=O)O; Dab = NCC[C@H](N)C(=O)O
Each entry below carries its recorded IC50.
# value in µM; strip the unit string

[
  {
    "compound": "CC(C)C[C@@H]1NC(=O)CSC[C@@H](C(=O)N[C@@H](C)C(N)=O)NC(=O)[C@H](CO)NC(=O)[C@H](C(C)C)NC(=O)[C@H](CC(C)C)NC(=O)[C@H](CCCNC(=N)N)NC(=O)[C@@H](CC(C)C)NC(=O)[C@H](C)N(C)C(=O)[C@H](CCCNC(=N)N)NC(=O)[C@H](Cc2ccc(-c3ccccc3)cc2)NC(=O)[C@H](C(C)C)NC(=O)[C@H](Cc2c[nH]c3ccccc23)NC(=O)[C@H](CC(=O)O)NC(=O)[C@H](Cc2ccc(O)cc2)NC1=O [Compound 1037] ({CH2CO}-LYDWV[Bip]R[NMeA][dL]RLVSCA-NH2; thioether N-14)",
    "IC50 / µM": 0.14
  }
]

Next up:
[ask] Quick one: IC50 for CC(C)C[C@@H]1NC(=O)[C@H](CCN)NC(=O)[C@@H](CC(C)C)NC(=O)[C@H](C)N(C)C(=O)[C@H](CCCNC(=N)N)NC(=O)[C@H](Cc2ccc(-c3ccsc3)cc2)NC(=O)[C@H](C(C)C)NC(=O)[C@H](Cc2c[nH]c3ccccc23)NC(=O)[C@H](CC(=O)O)NC(=O)[C@H](Cc2ccc(O)cc2)NC(=O)[C@H](CC(N)=O)NC(=O)CSC[C@@H](C(=O)N[C@@H](C)C(N)=O)NC(=O)[C@H]([C@@H](C)O)NC(=O)[C@H](C(C)C)NC1=O [Compound 1224] ({CH2CO}-NYDWV[X36]R[NMeA][dL][Dab]LVTCA-NH2; thioether N-14) ?
[reply] 0.04

---

target: PE-labeled human PD-L1-Ig binding to Jurkat cell line over-expressing human PD-1 (Jurkat-PD-1) (Homo sapiens); construct: expressed in transfected cells; host or cells: Jurkat; test: Jurkat-PD-1 Cell Binding High-Content Screening Assay (CBA): Method 1; conditions: Jurkat-hPD-1 cells, PE-labeled PD-L1-Ig 20 nM final; read-out: Jurkat HPDL1 PD1 IC50 (uM) (Method 1)
Bridge positions count the residues as written; N and C are the ends. Square brackets hold non-standard residues; d marks the D form. Peptide text beside a SMILES is read from it. Bip = N[C@@H](Cc1ccc(-c2ccccc2)cc1)C(=O)O; Phe(3-CN) = N#Cc1cccc(C[C@H](N)C(=O)O)c1; Phe(2-F) = N[C@@H](Cc1ccccc1F)C(=O)O; NMeA = CN[C@@H](C)C(=O)O; Nle = CCCC[C@H](N)C(=O)O; Orn = NCCC[C@H](N)C(=O)O; Dab = NCC[C@H](N)C(=O)O; Dap = NC[C@H](N)C(=O)O
// reported IC50 for each item listed
The answer is to be given in µM; state only the numeric part.

Previously resolved entries follow.
[
  {
    "compound": "CC(C)C[C@@H]1NC(=O)[C@H](Cc2c[nH]c3ccccc23)NC(=O)[C@H](CC(=O)O)NC(=O)[C@H](Cc2cccc(C#N)c2)NC(=O)[C@H](Cc2ccccc2)NC(=O)CSC[C@@H](C(=O)N[C@@H](C)C(N)=O)NC(=O)[C@H](CO)NC(=O)[C@H](C(C)C)NC(=O)[C@H](CC(C)C)NC(=O)[C@H](CC(N)=O)NC(=O)[C@@H](C)NC(=O)[C@H](C)N(C)C(=O)[C@H](C(C)C)NC(=O)[C@H](Cc2ccc(-c3ccccc3)cc2)NC1=O [Compound 1723] ({CH2CO}-F[Phe(3-CN)]DWL[Bip]V[NMeA][dA]NLVSCA-NH2; thioether N-14)",
    "measured-quantity": "IC50",
    "reported-result": 0.01
  },
  {
    "compound": "CC(C)C[C@@H]1NC(=O)[C@H](CCN)NC(=O)[C@@H](CC(C)C)NC(=O)[C@H](C)N(C)C(=O)[C@H](C(C)C)NC(=O)[C@H](Cc2ccc(-c3ccccc3)cc2)NC(=O)[C@H](C(C)C)NC(=O)[C@H](Cc2c[nH]c3ccccc23)NC(=O)[C@H](CC(=O)O)NC(=O)[C@H](Cc2ccccc2F)NC(=O)[C@H](CN)NC(=O)CSC[C@@H](C(=O)N[C@@H](C)C(N)=O)NC(=O)[C@H]([C@@H](C)O)NC(=O)[C@H](C(C)C)NC1=O [Compound 1442] ({CH2CO}-[Dap][Phe(2-F)]DWV[Bip]V[NMeA][dL][Dab]LVTCA-NH2; thioether N-14)",
    "measured-quantity": "IC50",
    "reported-result": 0.03
  }
]

[ask] Requested field: IC50. Item: CC(C)C[C@@H]1NC(=O)[C@H](CCN)NC(=O)[C@@H](CC(C)C)NC(=O)[C@H](C)N(C)C(=O)[C@H](CCCN)NC(=O)[C@H](Cc2ccc(-c3ccccc3)cc2)NC(=O)[C@H](C(C)C)NC(=O)[C@H](Cc2c[nH]c3ccccc23)NC(=O)[C@H](CC(=O)O)NC(=O)[C@H](Cc2ccc(O)cc2)NC(=O)[C@H](Cc2ccccc2)NC(=O)CSC[C@@H](C(=O)N[C@@H](C)C(N)=O)NC(=O)[C@H]([C@@H](C)O)NC(=O)[C@H](C(C)C)NC1=O [Compound 1121] ({CH2CO}-FYDWV[Bip][Orn][NMeA][dL][Dab]LVTCA-NH2; thioether N-14)
[reply] 0.06

[ask] What value of measured IC50 is listed for CCCC[C@@H]1NC(=O)[C@H](CCCNC(=N)N)NC(=O)[C@@H](CC(C)C)NC(=O)[C@H](C)N(C)C(=O)[C@H](C(C)C)NC(=O)[C@H](Cc2ccc(-c3ccccc3)cc2)NC(=O)[C@H](C(C)C)NC(=O)[C@H](Cc2c[nH]c3ccccc23)NC(=O)[C@H](CC(=O)O)NC(=O)[C@H](Cc2ccc(O)cc2)NC(=O)[C@H](Cc2ccccc2)NC(=O)CSC[C@@H](C(=O)N[C@@H](C)C(N)=O)NC(=O)[C@H]([C@@H](C)O)NC(=O)[C@H](C(C)C)NC1=O [Compound 1502] ({CH2CO}-FYDWV[Bip]V[NMeA][dL]R[Nle]VTCA-NH2; thioether N-14) ?
[reply] 0.1

---

# Lookup of reported IC50 keyed by entry
biological target: PE-labeled human PD-L1-Ig binding to Jurkat cell line over-expressing human PD-1 (Jurkat-PD-1) (Homo sapiens, UniProt Q15116); construct: expressed in transfected cells; host or cells: Jurkat; assay: Jurkat-PD-1 Cell Binding High-Content Screening Assay (CBA): Method 1; conditions: Jurkat-hPD-1 cells, PE-labeled PD-L1-Ig 20 nM final; read-out: Jurkat HPDL1 PD1 IC50 (uM) (Method 1)
Sequence (Q15116 25-288): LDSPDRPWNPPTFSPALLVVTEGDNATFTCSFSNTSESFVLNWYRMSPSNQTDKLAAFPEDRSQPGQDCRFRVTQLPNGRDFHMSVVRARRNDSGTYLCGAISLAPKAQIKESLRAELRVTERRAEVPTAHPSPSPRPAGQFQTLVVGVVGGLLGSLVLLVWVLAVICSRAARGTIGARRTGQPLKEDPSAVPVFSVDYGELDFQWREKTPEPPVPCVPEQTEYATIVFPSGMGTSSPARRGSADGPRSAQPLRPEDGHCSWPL
Numbered stars: 1 amine (or outer) side, 2 acyl side, 3 side chain; on linkers, the order of the positions; unused ones are H or OH. Bridge positions count the residues as written; N and C are the ends. Square brackets hold non-standard residues; d marks the D form. Peptide text beside a SMILES is read from it. X40 = O=C([C@H](Cc1ccc(-c2cccc(O)c2)cc1)N[*:1])[*:2]; Bip = N[C@@H](Cc1ccc(-c2ccccc2)cc1)C(=O)O; NMeA = CN[C@@H](C)C(=O)O; Nle = CCCC[C@H](N)C(=O)O; Dab = NCC[C@H](N)C(=O)O; Dap = NC[C@H](N)C(=O)O
Numeric answer only, unit µM assumed.

[
  {
    "molecule": "CC(C)C[C@@H]1NC(=O)[C@H](CCCNC(=N)N)NC(=O)[C@@H](Cc2ccccc2)NC(=O)[C@H](C)N(C)C(=O)[C@H](CCCNC(=N)N)NC(=O)[C@H](Cc2ccc(-c3ccccc3)cc2)NC(=O)[C@H](C(C)C)NC(=O)[C@H](Cc2c[nH]c3ccccc23)NC(=O)[C@H](CC(=O)O)NC(=O)[C@H](Cc2ccc(O)cc2)NC(=O)[C@H](Cc2cnc[nH]2)NC(=O)CSC[C@@H](C(=O)N[C@@H](C)C(N)=O)NC(=O)[C@H](CO)NC(=O)[C@H](C(C)C)NC1=O [Compound 1044] ({CH2CO}-HYDWV[Bip]R[NMeA][dF]RLVSCA-NH2; thioether N-14)",
    "IC50 / µM": 0.04
  }
]

[ask] # query: IC50 of entry CC(C)C[C@@H]1NC(=O)[C@H](Cc2c[nH]c3ccccc23)NC(=O)[C@H](CC(=O)O)NC(=O)[C@H](Cc2ccc(O)cc2)NC(=O)[C@H](Cc2ccccc2)NC(=O)CSC[C@@H](C(=O)NCC(N)=O)NC(=O)[C@H]([C@@H](C)O)NC(=O)[C@H](C(C)C)NC(=O)[C@H](CC(C)C)NC(=O)[C@H](CCN)NC(=O)[C@@H](CC(C)C)NC(=O)[C@H](C)N(C)C(=O)[C@H](C(C)C)NC(=O)[C@H](Cc2ccc(-c3ccccc3)cc2)NC1=O [Compound 1469] ({CH2CO}-FYDWL[Bip]V[NMeA][dL][Dab]LVTCG-NH2; thioether N-14)
[reply] 0.01

[ask] Would you kindly share the measured IC50 for CCCC[C@@H]1NC(=O)[C@H](CCCNC(=N)N)NC(=O)[C@@H](CC(C)C)NC(=O)[C@H](C)N(C)C(=O)[C@H](C(C)C)NC(=O)[C@H](Cc2ccc(-c3ccccc3)cc2)NC(=O)[C@H](C(C)C)NC(=O)[C@H](Cc2c[nH]c3ccccc23)NC(=O)[C@H](CC(=O)O)NC(=O)[C@H](Cc2ccc(O)cc2)NC(=O)[C@H](CN)NC(=O)CSC[C@@H](C(=O)N[C@@H](C)C(N)=O)NC(=O)[C@H]([C@@H](C)O)NC(=O)[C@H](C(C)C)NC1=O [Compound 1500] ({CH2CO}-[Dap]YDWV[Bip]V[NMeA][dL]R[Nle]VTCA-NH2; thioether N-14) ?
[reply] 0.08

[ask] Reported IC50, molecule CC(C)C[C@@H]1NC(=O)[C@H](CCN)NC(=O)[C@@H](CC(C)C)NC(=O)[C@H](C)N(C)C(=O)[C@H](CCCNC(=N)N)NC(=O)[C@H](Cc2ccc(-c3cccc(O)c3)cc2)NC(=O)[C@H](C(C)C)NC(=O)[C@H](Cc2c[nH]c3ccccc23)NC(=O)[C@H](CC(=O)O)NC(=O)[C@H](Cc2ccc(O)cc2)NC(=O)[C@H](CC(N)=O)NC(=O)CSC[C@@H](C(=O)N[C@@H](C)C(N)=O)NC(=O)[C@H]([C@@H](C)O)NC(=O)[C@H](C(C)C)NC1=O [Compound 1212] ({CH2CO}-NYDWV[X40]R[NMeA][dL][Dab]LVTCA-NH2; thioether N-14) : ____
[reply] 0.69
